Measured values drawn from ChEMBL document CHEMBL2434841 for this set.

Recorded below: IC50, system Glucagon receptor (Homo sapiens, UniProt P47871).
Give a bare numeral; the unit nM is implied.

// solved cases for IC50 follow
Fc1ccc(-c2cc(C3CCCCC3)[nH]c2-c2ccncc2)cc1 = 180
Fc1ccc(-c2cc(-c3ccc(Cl)cc3)[nH]c2-c2ccncc2)cc1 = 1400
Clc1ccc(-c2cc(-c3cccc(Br)c3)c(-c3ccncc3)[nH]2)cc1 = 80.2
C[S+]([O-])c1ccc(C2=NC(c3ccncc3)=C(c3ccc(F)cc3)C2)cc1 (configuration not stated) = 671
COc1ccccc1-c1cc(-c2ccc(Cl)cc2)[nH]c1-c1ccncc1 = 2650
Nc1ccc(-c2cc(-c3ccc(F)cc3)c(-c3ccncc3)[nH]2)cc1 = 190
Fc1ccc(-c2cc(-c3ccc(F)cc3)c(-c3ccncc3)[nH]2)cc1 = 340
CCOC(=O)c1ccc(-c2cc(-c3ccc(F)cc3)c(-c3ccncc3)[nH]2)cc1 = 260
Fc1ccc(-c2cc(-c3ccc(Cl)cc3Cl)[nH]c2-c2ccncc2)cc1 = 421
Clc1ccc(-c2cc(-c3ccccc3)c(-c3ccncc3)[nH]2)cc1 = 210

## Task Please give the measured IC50 for this compound: "O=[N+]([O-])c1ccc(-c2cc(-c3ccc(F)cc3)c(-c3ccncc3)[nH]2)cc1"
## Result 50

## Task Same again, this time with "CSc1ccc(-c2cc(-c3ccncc3)c(-c3ccc(F)cc3)[nH]2)cc1"
## Result 44.1

## Task Same again, this time with "COc1ccc(-c2cc(-c3ccc(Cl)cc3)[nH]c2-c2ccncc2)cc1"
## Result 1150

## Task Same again, this time with "CCOc1ccccc1-c1cc(-c2ccc(Cl)cc2)[nH]c1-c1ccncc1"
## Result 14200

## Task Same again, this time with "C=CCOc1ccccc1-c1cc(-c2ccc(Cl)cc2)[nH]c1-c1ccncc1"
## Result 4740

## Task Same again, this time with "Clc1ccc(-c2cc(-c3ccc(Cl)cc3)c(-c3ccncc3)[nH]2)cc1"
## Result 160

## Task Same again, this time with "Clc1ccc(-c2cc(-c3ccc(Br)cc3)c(-c3ccncc3)[nH]2)cc1"
## Result 301
